Data credit: paper PMC6001238

- System: E. faecalis VRE 53
- experiment: MIC, broth microdilution, vancomycin-resistant E. faecalis VRE 53 (VanA)
- Type: cell-based, Enterococcus faecalis
- conditionSummary: E. faecalis VRE 53; ratio of MIC of vancomycin and MIC of analogue
Kindly state MICvanc/MICi for each of the entries shown.
Reply with the value as a number alone.

query: Return MICvanc/MICi measured with E. faecalis VRE 53 given this compound: "C#Cc1ccc(-c2ccc(C(=O)NCCCNC(=O)[C@H]3NC(=O)[C@H]4NC(=O)[C@H](NC(=O)[C@@H]5NC(=O)[C@H](CC(N)=O)NC(=O)[C@H](NC(=O)[C@@H](CC(C)C)NC)[C@H](O)c6ccc(c(Cl)c6)Oc6cc5cc(c6O[C@@H]5O[C@H](CO)[C@@H](O)[C@H](O)[C@H]5O[C@H]5C[C@](C)(N)[C@H](O)[C@H](C)O5)Oc5ccc(cc5Cl)[C@H]4O)c4ccc(O)c(c4)-c4c(O)cc(O)cc43)cc2)cc1"
result: 128

query: Return MICvanc/MICi measured with E. faecalis VRE 53 given this compound: "CN[C@H](CC(C)C)C(=O)N[C@H]1C(=O)N[C@@H](CC(N)=O)C(=O)N[C@H]2C(=O)N[C@H]3C(=O)N[C@H](C(=O)N[C@H](C(=O)O)c4cc(O)cc(O)c4-c4cc3ccc4O)[C@H](O)c3ccc(c(Cl)c3)Oc3cc2cc(c3O[C@@H]2O[C@H](CO)[C@@H](O)[C@H](O)[C@H]2O[C@H]2C[C@](C)(N)[C@H](O)[C@H](C)O2)Oc2ccc(cc2Cl)[C@H]1O"
result: 1

query: Return MICvanc/MICi measured with E. faecalis VRE 53 given this compound: "C#Cc1ccc(/C=C/C(=O)NCCNC(=O)[C@H]2NC(=O)[C@H]3NC(=O)[C@H](NC(=O)[C@@H]4NC(=O)[C@H](CC(N)=O)NC(=O)[C@H](NC(=O)[C@@H](CC(C)C)NC)[C@H](O)c5ccc(c(Cl)c5)Oc5cc4cc(c5O[C@@H]4O[C@H](CO)[C@@H](O)[C@H](O)[C@H]4O[C@H]4C[C@](C)(N)[C@H](O)[C@H](C)O4)Oc4ccc(cc4Cl)[C@H]3O)c3ccc(O)c(c3)-c3c(O)cc(O)cc32)cc1"
result: 64

query: Return MICvanc/MICi measured with E. faecalis VRE 53 given this compound: C#Cc1ccc(C=Cc2ccc(NC(=O)CNC(=O)C3NC(=O)C4NC(=O)C(NC(=O)C5NC(=O)C(CC(N)=O)NC(=O)C(NC(=O)C(CC(C)C)NC)C(O)c6ccc(c(Cl)c6)Oc6cc5cc(c6OC5OC(CO)C(O)C(O)C5OC5CC(C)(N)C(O)C(C)O5)Oc5ccc(cc5Cl)C4O)c4ccc(O)c(c4)-c4c(O)cc(O)cc43)cc2)cc1 (stereo not shown)
result: 64
